Data provenance: patent US6465494B1

# measurement.description: acute toxicity study in rats
# reported.conditions: rat, in vivo; rats, oral; read-out: oral LD50
Structures can show the parent of a compound that is named as a salt.

>  <compound>
CC1=C(CC(=O)NCc2ccccc2)c2cc(F)ccc2/C1=C\c1ccncc1 [Example 38, hydrochloride]

>  <LD50>
> 2000 mg/kg

$$$$

----------
# System: PDE1
# measurement.description: PDE inhibition, similar protocols: PDE1
# Type: biochemical
Where a name gives a salt, the structure may show the parent alone.

>  <compound>
CC1=C(CC(=O)NCc2ccccc2)c2cc(F)ccc2/C1=C\c1ccncc1 [Example 38, hydrochloride]

>  <IC50 / nM>
3000

$$$$

----------
# IC50 values compiled below
# assayed.system: PDE5 (Homo sapiens, UniProt O76074)
# measurement.description: cGMP PDE inhibition, 3H-cGMP hydrolysis: PDE5
Where a name gives a salt, the structure may show the parent alone.
quantity.kind: IC50 (nM)

>  <molecule>
CC1=C(CC(=O)NCc2ccccc2)c2cc(F)ccc2/C1=C\c1ccncc1 [Example 1]

>  <result>
680

$$$$
>  <molecule>
CC1=C(CC(=O)NCc2ccccc2)c2cc(F)ccc2/C1=C\c1ccncc1 [Example 38, hydrochloride]

>  <result>
4000

$$$$

----------
# assayed.system: GST-cGB-PDE5 fusion protein (Homo sapiens)
# measurement.description: cGMP binding assay with GST-cGB-PDE5 fusion protein
# reported.conditions: read-out: Kd of cGMP binding to GST-cGB-PDE5 fusion protein; two cGMP binding sites

>  <compound>
Nc1nc2c(ncn2[C@@H]2O[C@@H]3COP(=O)(O)O[C@H]3[C@H]2O)c(=O)[nH]1 [cGMP, cyclic 3′,5′-guanosine monophosphate]

>  <assayed.system>
GST-cGB-PDE5 fusion protein (Homo sapiens)

>  <Kd (µM)>
1.6

$$$$

----------
# Tested on: PDE4
# measurement.description: PDE inhibition, similar protocols: PDE4
# Format: biochemical
Counter-ions that a name gives are not always drawn.
quantity.kind: IC50 (µM)

>  <molecule>
CC1=C(CC(=O)NCc2ccccc2)c2cc(F)ccc2/C1=C\c1ccncc1 [Example 38, hydrochloride]

>  <result>
6

$$$$

----------
# measurement.description: acute and seven-dose toxicity in dogs (capsules)
# reported.conditions: both sexes, dog, in vivo, 1000 mg/kg; dogs, oral
Where a name gives a salt, the structure may show the parent alone.
quantity.kind: LD50

>  <compound>
CC1=C(CC(=O)NCc2ccccc2)c2cc(F)ccc2/C1=C\c1ccncc1 [Example 38, hydrochloride]

>  <quantity.kind>
LD50

>  <result>
> 1000 mg/kg

$$$$
